Target: Mu-type opioid receptor (Homo sapiens)
Sequence (P35372 whole entry): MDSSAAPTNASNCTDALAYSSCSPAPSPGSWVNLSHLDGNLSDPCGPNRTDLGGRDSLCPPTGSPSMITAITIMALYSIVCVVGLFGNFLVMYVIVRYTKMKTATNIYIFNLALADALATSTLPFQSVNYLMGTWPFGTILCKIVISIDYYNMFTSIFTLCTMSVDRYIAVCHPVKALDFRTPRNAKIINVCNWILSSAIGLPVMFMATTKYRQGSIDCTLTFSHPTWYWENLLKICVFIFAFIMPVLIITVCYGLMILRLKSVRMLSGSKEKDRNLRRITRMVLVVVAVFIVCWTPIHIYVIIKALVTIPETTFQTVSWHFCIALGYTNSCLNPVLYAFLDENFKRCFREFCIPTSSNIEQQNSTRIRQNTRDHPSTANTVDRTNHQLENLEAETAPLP
Test: biochemical
Description: Agonist activity at human mu opioid receptor expressed in CHO cell membranes incubated for 1 hr by [35S]GTPgammaS binding assay
pEC50: −log10 of the molar value.
propertyLabel: pEC50

• Cc1cc(-c2cnc3c(c2)C[C@@]2(OCCCc4ccccc4)[C@H]4Cc5ccc(O)c6c5[C@@]2(CCN4CC2CC2)[C@H]3O6)ccn1 = 8.73
• Oc1ccc2c3c1O[C@H]1c4ncc(-c5ccccc5C5CC5)cc4C[C@@]4(OCCCc5ccccc5)[C@@H](C2)N(CC2CC2)CC[C@]314 = 6.85
• Oc1ccc2c3c1O[C@H]1c4ncc(-c5ccncc5)cc4C[C@@]4(OCCCc5ccccc5)[C@@H](C2)N(CC2CC2)CC[C@]314 = 7.25
• CN(C)c1cccc(-c2cnc3c(c2)C[C@@]2(OCCCc4ccccc4)[C@H]4Cc5ccc(O)c6c5[C@@]2(CCN4CC2CC2)[C@H]3O6)c1 = 8.82
• Cc1cccc(-c2cnc3c(c2)C[C@@]2(OCCCc4ccccc4)[C@H]4Cc5ccc(O)c6c5[C@@]2(CCN4CC2CC2)[C@H]3O6)c1 = 7.69
• Oc1ccc2c3c1O[C@H]1c4ncc(-c5cn[nH]c5)cc4C[C@@]4(OCCCc5ccccc5)[C@@H](C2)N(CC2CC2)CC[C@]314 = 8.48
